target: Gal(b1-4)GlcNAc(b1-3)Gal(b1-4)GlcNAc(b1-3)Gal(b1-4)GlcNAc(b1-3)Gal(b1-4)GlcNAc(b1-3)Gal(b1-4)GlcNAc(b1-2)[Gal(b1-4)GlcNAc(b1-3)Gal(b1-4)GlcNAc(b1-3)Gal(b1-4)GlcNAc(b1-3)Gal(b1-4)GlcNAc(b1-3)Gal(b1-4)GlcNAc(b1-6)]Man(a1-6)[Gal(b1-4)GlcNAc(b1-3)Gal(b1-4)GlcNAc(b1-3)Gal(b1-4)GlcNAc(b1-3)Gal(b1-4)GlcNAc(b1-3)Gal(b1-4)GlcNAc(b1-2)Man(a1-3)]Man(b1-4)GlcNAc(b1-4)[Fuc(a1-6)]GlcNAc; test: glycan array binding signal (z-score within array); higher = stronger binding; settings: glycan notation: IUPAC condensed, linker removed
The full list was thinned out, with the strongest signals kept by preference.
REPORTED_METRIC: glycan array binding signal (z-score)

Lookup: Answer with reported glycan array binding signal (z-score) of GNA (Galanthus nivalis), P30617 (protein) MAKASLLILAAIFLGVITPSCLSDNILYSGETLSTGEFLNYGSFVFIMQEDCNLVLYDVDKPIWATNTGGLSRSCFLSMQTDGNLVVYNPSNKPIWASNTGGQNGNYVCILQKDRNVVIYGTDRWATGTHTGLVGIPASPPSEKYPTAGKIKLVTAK
Found: -0.018

Lookup: Answer with reported glycan array binding signal (z-score) of SJA (Sophora japonica) (protein) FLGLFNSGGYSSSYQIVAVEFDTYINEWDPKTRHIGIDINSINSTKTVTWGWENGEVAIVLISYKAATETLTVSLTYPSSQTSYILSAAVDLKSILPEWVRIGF
Found: 2.24

Lookup: Answer with reported glycan array binding signal (z-score) of rMpL (Macrolepiota procera) (protein) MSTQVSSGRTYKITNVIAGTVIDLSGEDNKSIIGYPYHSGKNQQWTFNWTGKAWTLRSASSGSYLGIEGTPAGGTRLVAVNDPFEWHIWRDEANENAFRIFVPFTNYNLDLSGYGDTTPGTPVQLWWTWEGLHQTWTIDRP
Found: 4.6
